# EXPERIMENTAL_PROTOCOL: NCI Yeast Anticancer Drug Screen. Data for the mlh1 rad18 strain (AID 175)
# DETAILS: S. cerevisiae mlh1 rad18 strain growth inhibition; at 50.0 µM
Compounds without any hit were thinned out: in the full panel of roughly 79,000, 15% have a hit. Active and inactive are the calls of the source. Cut-off read from the data, not from the text of the source: active = growth inhibition above about 70%; inactive = the rest.
Labels: 1 for active, 0 for inactive

| COMPOUND | CLASS_LABEL |
| --- | --- |
| CN(C)CCN(C)P12(Oc3ccccc3O1)Oc1c(Cl)c(Cl)c(Cl)c(Cl)c1O2 | 1 |
| O=[N+]([O-])c1ccc(C=Cc2ccc(C(F)(F)F)cc2)cc1.[C-]#[O+].[C-]#[O+].[C-]#[O+].[Cr] | 1 |
| CC1=C(O)C(=O)C=C2C1=CC=C1[C@@]2(C)CCC2(C)[C@@H]3C[C@@H](C)C(=O)C[C@]3(C)CC[C@]12C (stereo partly drawn) | 1 |
| COC(=O)C(C)(C)[n+]1c(C)cc(C)cc1C | 0 |
| COc1c(Br)cc(/C=C(/C)[N+](=O)[O-])cc1Br | 1 |
| O=C1C=CC(=O)N1c1cccc2ccccc12 (tested in a mixture with another compound) | 0 |
| CC1(Cl)CC(C)(/C=C/Cl)C(Cl)CC1Cl (stereo not drawn) | 1 |
| CCCCS.[Hg] | 1 |
| CCN(CCCl)c1ccc(/C=C/C2=[N+](C)c3ccccc3C2(C)C)c(C)c1 | 0 |
| COC1OC(COC(C)=O)C(OC(C)=O)C(OC(C)=O)[CH]1[Hg][I] (stereo not drawn) | 1 |
| O=C1C=C(Cl)C(=O)C=C1Cl | 1 |
| ClCc1nc2ccccc2[nH]1 | 1 |
| O=C(O)C1C2c3cccc4cccc(c34)C12 (stereo not drawn) | 1 |
| c1ccc([CH2][Pb]([c]2ccccc2)([c]2ccccc2)[c]2ccccc2)cc1 | 1 |
| NC(=O)CNCc1ccc([As]=O)cc1 (stereo not drawn) | 0 |
| C/C(CCl)=N/NC1=NC(c2ccccc2Cl)P(=O)(NCCCNP2(=O)SC(N/N=C(/C)CCl)=NC2c2ccccc2Cl)S1 (stereo not drawn) | 1 |
| COC1=C(N2CC2)C(=O)C(OC)=C(N2CC2)C1=O | 1 |
| c1ccc(N=c2nc(N3CCOCC3)ss2)cc1 | 1 |
| CCOC(=O)C1C2c3ccccc3C(c3ccccc32)C1C(=O)OCC (stereo not drawn) | 0 |
| CCOP(=O)(O)C(Nc1ccc(N=Nc2ccccc2)cc1)c1cccc(C(Nc2ccc(N=Nc3ccccc3)cc2)P(=O)(O)OCC)c1 (stereo not drawn) | 0 |
| ClCCN(CCCl)c1ccc(C=NCCCCN=Cc2ccc(N(CCCl)CCCl)cc2)cc1 | 1 |
| O=C1C(F)=C(N2CC2)C(=O)C(F)=C1N1CC1 | 1 |
| COC(=O)C(CCCN=C(N)N[N+](=O)[O-])NC(=O)c1ccc2c(c1O)C(=O)c1ccccc1C2=O (stereo not drawn) | 0 |
| CC(NCCN(C)C)C1CC2CCCCN2C1 (stereo not drawn) | 0 |
| Cc1ccc(N=P(c2ccccc2)(c2ccccc2)c2ccccc2)cc1.[I][Hg][I] | 1 |
| O=C(O)CCCOc1cc(Cl)c(Cl)cc1Cl | 1 |
| C[C@]12CC[C@H](O)CC1=CC[C@@H]1[C@@H]2CC[C@]2(C)C(=O)CC[C@@H]12 | 1 |
| C/C(=N\NC(N)=O)C(CN1CCOCC1)C(c1ccccc1)c1c(O)c2ccccc2oc1=O (stereo not drawn) | 0 |
| CCOC(=O)c1ccccc1N | 0 |
| Nc1ccc(Cc2ccc(N)c(Cl)c2)cc1Cl | 1 |
| CC(=O)[O-].CC(=O)[O-].O=C(N/N=C/c1cc(Cl)cc(Cl)c1[OH2+])c1ccncc1.[Mn+2] | 1 |
| Oc1cccc2cccnc12 | 1 |
| CN(C)CC1CC2C3CC=C4CC(O)CCC4(C)C3CCC2(C)C1=O (stereo not drawn) | 1 |
| CCCCCCCCCC[Se]C#N | 1 |
| OC1CCCC2CCC[N-]C12.OC1CCCC2CCC[N-]C12.[O]=[V][OH] (stereo not drawn) | 1 |
| [N-]=[N+]=NS(=O)(=O)c1cccc([N+](=O)[O-])c1 | 1 |
| O=C1C2CC(Cl)C(SSC3CC4C(=O)N(SC(Cl)(Cl)C(Cl)Cl)C(=O)C4CC3Cl)CC2C(=O)N1SC(Cl)(Cl)C(Cl)Cl (stereo not drawn) | 1 |
| C/C(=N\N)C(CN1CCCCC1)C(c1ccccc1)c1c(O)c2ccccc2oc1=O (stereo not drawn) | 1 |
| COc1cc(/C=C/c2ccc(OC)c(OC)c2)cc(OC)c1 | 0 |
| Cc1cc(N(CCCl)CCCl)ccc1C=Nc1ccc(-c2csc(COc3ccccc3)n2)c(Cl)c1 | 1 |
| CC12CCC(O)CC1=CCC1C2CCC2(C)C(NC(=O)C3CCCN3C(=O)CN(CCCl)CCCl)CCC12 (stereo not drawn) | 1 |
| C[C@]12CCC3[C@@H](CC[C@@H]4c5nonc5CC[C@]34C)C1CCC2=O (stereo partly drawn) | 1 |
| CCNc1ncc2ccccc2c1-c1ccc(N2CCN(CCCl)CC2)cc1 | 1 |

The origin of these recorded values is PubChem BioAssay (NCI).
